- System: Rattus norvegicus
- measurement protocol: Antiinflammatory activity in Wistar albino rat assessed as inhibition of carrageenan-induced paw edema at 50 mg/kg, po administered 30 mins prior to carrageenan challenge measured after 4 hrs by plethysmometer analysis
- Assay type: functional
# cutoff 30% applies to inhibition in vivo at 50 mg/kg; >= gives Criterion met, < gives Criterion not met

Solved entries:
{"item smiles": "O=c1oc2ccccc2cc1-c1csc(N2N=C(C(F)(F)F)C[C@@]2(O)C(F)(F)F)n1", "assigned class": "Criterion met"}
{"item smiles": "O=c1oc2ccccc2cc1-c1csc(N2N=C(c3ccc(Cl)cc3)C[C@@]2(O)C(F)(F)F)n1", "assigned class": "Criterion met"}
{"item smiles": "O=c1oc2ccccc2cc1-c1csc(N2N=C(c3ccc(F)cc3)C[C@@]2(O)C(F)(F)F)n1", "assigned class": "Criterion not met"}
{"item smiles": "O=c1oc2ccc(Cl)cc2cc1-c1csc(N2N=C(c3ccc(Cl)cc3)C[C@@]2(O)C(F)(F)F)n1", "assigned class": "Criterion met"}
{"item smiles": "O=c1oc2ccccc2cc1-c1csc(N2N=C(c3ccc(Br)cc3)C[C@@]2(O)C(F)(F)F)n1", "assigned class": "Criterion not met"}

Exam item: decide whether the reported inhibition in vivo at 50 mg/kg for O=c1oc2ccc(Cl)cc2cc1-c1csc(N2N=C(C(F)(F)F)C[C@@]2(O)C(F)(F)F)n1 is at least 30%. Criterion met
